# System: HeLa cells
# protocol_notes: Cell cycle assay in HeLa cells
# Format: cell-based, human
# run_conditions: HeLa cells, 150 nM oligomeric compound, 24 hours, relative to untreated control (UTC = 100)
In the oligonucleotide strings, read from the 5' end, every base follows the letter of its sugar. An asterisk marks phosphorothioate; unmarked linkages are phosphodiester. Other units and linkages are bracketed, terminal groups are in braces. A string of capitals states the bases alone. e = 2'-O-(2-methoxyethyl) (MOE); [5mC] = 5-methylcytosine; d = 2'-deoxy (DNA)

substance	% cells in cell cycle phase S
328744 (antisense e[5mC]*eG*eG*eA*eT*d[5mC]*d[5mC]*dT*dG*dT*dT*dA*d[5mC]*d[5mC]*dT*e[5mC]*eA*e[5mC]*e[5mC]*eA) [compound 328744]	108%
328647 (eG*eG*eA*eG*eT*dA*dG*dA*dT*dG*dA*dT*dG*dG*dT*eT*eA*eG*e[5mC]*e[5mC]; antisense) [compound 328647]	92%
338750 (antisense TCCGCGGGGGCGGGGAGGCT; all 2'-MOE, all phosphorothioate, methylation of C not given here) [compound 338750]	76%
328339 (eG*e[5mC]*eA*eG*e[5mC]*dG*d[5mC]*dA*dG*d[5mC]*dT*dG*dG*dT*d[5mC]*eT*e[5mC]*e[5mC]*e[5mC]*e[5mC]) [compound 328339]	102%
341785 (antisense GGAGTGAAGACACGGAGCCAGA; all 2'-MOE, all phosphorothioate, methylation of C not given here) [compound 341785]	92%

====

Entries and their aP2 mRNA
# System: aP2
# protocol_notes: aP2 mRNA expression in adipocytes (real-time PCR)
# Type: cell-based, human
# run_conditions: differentiating adipocytes transfected with oligomeric compound; Table 75
In the oligonucleotide strings, read from the 5' end, every base follows the letter of its sugar. An asterisk marks phosphorothioate; unmarked linkages are phosphodiester. Other units and linkages are bracketed, terminal groups are in braces. A string of capitals states the bases alone. e = 2'-O-(2-methoxyethyl) (MOE); [5mC] = 5-methylcytosine
reported_endpoint: aP2 mRNA

substance	reported_endpoint	observed_result
328130 (antisense eA*e[5mC]*e[5mC]*eT*e[5mC]*eA*eG*eG*eT*eG*eG*eT*eT*eG*eA*eA*eG*eG*eA*eG*eA) [compound 328130]	aP2 mRNA	72 percentage of untreated control (UTC)
346686 (CUUCAGUUAUCACAGUACUGUA; all 2'-MOE, all phosphorothioate, methylation of C and T or U not given here) [compound 346686]	aP2 mRNA	83 percentage of untreated control (UTC)
328089 (antisense eA*e[5mC]*eT*eG*eT*eA*eG*eG*eA*eA*eT*eA*eT*eG*eT*eT*eT*eG*eA*eT*eA) [compound 328089]	aP2 mRNA	50 percentage of untreated control (UTC)
346906 (ACAGGAUUGAGGGGGGGCCCU; all 2'-MOE, all phosphorothioate, methylation of C and T or U not given here) [compound 346906]	aP2 mRNA	77 percentage of untreated control (UTC)
340358 (antisense CAGCUAUGCCAGCAUCUUGCC; all 2'-MOE, all phosphorothioate, methylation of C and T or U not given here) [compound 340358]	aP2 mRNA	47 percentage of untreated control (UTC)

====

# Tested on: HSL
# protocol_notes: HSL mRNA expression in adipocytes (real-time PCR)
# Assay type: cell-based, human
# run_conditions: differentiating adipocytes transfected with oligomeric compound
In the oligonucleotide strings, read from the 5' end, every base follows the letter of its sugar. An asterisk marks phosphorothioate; unmarked linkages are phosphodiester. Other units and linkages are bracketed, terminal groups are in braces. A string of capitals states the bases alone. e = 2'-O-(2-methoxyethyl) (MOE); [5mC] = 5-methylcytosine
reported_endpoint: HSL mRNA

substance	observed_result
327937 (antisense eG*eA*eT*eT*e[5mC]*eA*e[5mC]*eA*eA*e[5mC]*eA*e[5mC]*e[5mC]*eA*eG*e[5mC]*eT) [compound 327937]	77 percentage of untreated control (UTC)
328093 (antisense eT*eA*eA*eA*e[5mC]*eA*eT*e[5mC]*eA*e[5mC]*eT*eG*e[5mC]*eA*eA*eG*eT*e[5mC]*eT*eT*eA) [compound 328093]	89 percentage of untreated control (UTC)
328132 (antisense eG*eT*eG*eA*eG*eA*eG*eT*eA*eG*e[5mC]*eA*eT*eG*eT*eT*eT*eG*eT*e[5mC]*eT) [compound 328132]	89 percentage of untreated control (UTC)
